What PL was measured for each of the following?
Species: Rattus norvegicus
EXPERIMENT NOTES: Open TG-GATES - Regimen: Daily Repeat
Assay type: toxicity, organism-based, Sprague-Dawley
Set-up: regimen Daily Repeat, gender Male, age 6 weeks
ASSAY CONTEXT: in vivo, po, 100 mg/kg, […], tissue Plasma, route gavage, dose level Low, time 14 day
Respond numerically; units are mg/dL and should not be typed.

Sample "O=C(OC[C@H]1O[C@@H](OC(=O)c2cc(O)c(O)c(OC(=O)c3cc(O)c(O)c(O)c3)c2)[C@H](OC(=O)c2cc(O)c(O)c(OC(=O)c3cc(O)c(O)c(O)c3)c2)[C@@H](OC(=O)c2cc(O)c(O)c(OC(=O)c3cc(O)c(O)c(O)c3)c2)[C@@H]1OC(=O)c1cc(O)c(O)c(OC(=O)c2cc(O)c(O)c(O)c2)c1)c1cc(O)c(O)c(OC(=O)c2cc(O)c(O)c(O)c2)c1" ; PL observed: 140.2

Sample "CN/C(=N/CCSCc1nc[nH]c1C)NC#N" ; PL observed: 142.2

Sample "Cc1nnc2n1-c1ccc(Cl)cc1C(c1ccccc1Cl)=NC2" ; PL observed: 151.8

Sample "CNC(=C[N+](=O)[O-])NCCSCc1ccc(CN(C)C)o1" ; PL observed: 159.4

Sample "CCOc1ccc(NC(C)=O)cc1" ; PL observed: 162

Sample "COC(=O)C1=C(C)NC(C)=C(C(=O)OC)C1c1ccccc1[N+](=O)[O-]" ; PL observed: 149.6
